MEASURED TARGET: MAGI1-2/6 PDZ domain (Mus musculus)
Construct: The cDNA encoding residues 448–572 and 613–752 of mouse MAGI-1 (UniProt acc.: Q6RHR9-1) encoding for MAGI1-2/6; made in house; host or cells: E. coli BL21 DE3
Sequence (Q6RHR9 448-572): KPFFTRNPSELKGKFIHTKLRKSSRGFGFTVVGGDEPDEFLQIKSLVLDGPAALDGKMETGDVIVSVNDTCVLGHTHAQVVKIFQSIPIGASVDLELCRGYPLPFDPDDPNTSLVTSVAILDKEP
PROTOCOL DETAILS: SPR binding of MBP-PDZ analyte to immobilised biotinylated peptides
EXPERIMENTAL SETUP: Table S3, column this study; SPR; read-out: this study (Kd)
Ends that are not written are not given here.
QUANTITY KIND: pKd
By convention, pKd is the negative base-10 log of a molar concentration.

Lookup: Which pKd is reported for this sequence? SGGKRKETLV [NET1_10]
Found: 5.52

---

Property: pKd; scope: individual compounds
MEASURED TARGET: SCRIB-34/4 tandem PDZ construct (Homo sapiens, UniProt Q14160)
Construct: residues 997–1093, 1097–1193 and 997–1193 of human SCRIB (Uniprot acc.: Q14160-1); made in house; host or cells: E. coli BL21 DE3
PROTOCOL DETAILS: SPR binding of MBP-PDZ analyte to immobilised biotinylated peptides
EXPERIMENTAL SETUP: SPR Biacore 2000, 25 C, steady state, 1:1 binding isotherm, MBP-PDZ 0-30 µM; to be considered with caution; read-out: tentative KD
Peptide text beside a SMILES is read from it. * marks the point of attachment. Biotin = O=C1N[C@H]2[C@H](CS[C@H]2CCCCC(=O)*)N1
By convention, pKd is the negative base-10 log of a molar concentration.

Some entries whose results are on file:
[
  {
    "COMPOUND": "CC[C@H](C)[C@H](NC(=O)[C@@H](NC(=O)[C@H](CCC(=O)O)NC(=O)[C@H](Cc1c[nH]cn1)NC(=O)CNC(=O)[C@H](C)NC(=O)CNC(=O)[C@H](CO)NC(=O)CNC(=O)CCCC[C@@H]1SC[C@@H]2NC(=O)N[C@@H]21)[C@@H](C)O)C(=O)N[C@H](C(=O)O)C(C)C [TMEM215_05] (Biotin-GSGAGHETIV-OH)",
    "pKd": 4.82
  },
  {
    "COMPOUND": "CC(C)[C@H](NC(=O)[C@@H](NC(=O)[C@@H](NC(=O)[C@H](CCC(=O)O)NC(=O)[C@@H](NC(=O)CNC(=O)[C@H](C)NC(=O)CNC(=O)[C@H](CO)NC(=O)CNC(=O)CCCC[C@@H]1SC[C@@H]2NC(=O)N[C@@H]21)C(C)C)[C@@H](C)O)C(C)C)C(=O)O [MAS_05] (Biotin-GSGAGVETVV-OH)",
    "pKd": 4.80
  },
  {
    "COMPOUND": "CC(C)[C@H](NC(=O)[C@H](CCCNC(=N)N)NC(=O)[C@@H](NC(=O)[C@H](CCC(=O)O)NC(=O)[C@H](CCCCN)NC(=O)CNC(=O)[C@H](C)NC(=O)CNC(=O)[C@H](CO)NC(=O)CNC(=O)CCCC[C@@H]1SC[C@@H]2NC(=O)N[C@@H]21)[C@@H](C)O)C(=O)O [CYSLTR2_05] (Biotin-GSGAGKETRV-OH)",
    "pKd": 5.00
  }
]

Lookup: Which pKd is reported for this compound? C[C@H](NC(=O)CNC(=O)[C@H](CO)NC(=O)CNC(=O)CCCC[C@@H]1SC[C@@H]2NC(=O)N[C@@H]21)C(=O)NCC(=O)N[C@@H](CCCCN)C(=O)N[C@@H](CCC(=O)O)C(=O)N[C@H](C(=O)N[C@@H](CO)C(=O)N[C@@H](Cc1ccccc1)C(=O)O)[C@@H](C)O [GLUT7_05] (Biotin-GSGAGKETSF-OH)
Found: 5.30

Lookup: Which pKd is reported for this compound? CC[C@H](C)[C@H](NC(=O)CNC(=O)[C@H](C)NC(=O)CNC(=O)[C@H](CO)NC(=O)CNC(=O)CCCC[C@@H]1SC[C@@H]2NC(=O)N[C@@H]21)C(=O)N[C@@H](CCC(=O)O)C(=O)N[C@@H](CO)C(=O)N[C@@H](CC(N)=O)C(=O)N[C@H](C(=O)O)C(C)C [TANC1_05] (Biotin-GSGAGIESNV-OH)
Found: 5.05

---

Property: Kd; scope: individual sequences
MEASURED TARGET: SCRIB-34/4 tandem PDZ construct (Homo sapiens)
Construct: residues 997–1093, 1097–1193 and 997–1193 of human SCRIB (Uniprot acc.: Q14160-1); made in house; host or cells: E. coli BL21 DE3
PROTOCOL DETAILS: SPR binding of MBP-PDZ analyte to immobilised biotinylated peptides
EXPERIMENTAL SETUP: SPR Biacore 2000, 25 C, steady state, 1:1 binding isotherm, MBP-PDZ 0-30 µM; to be considered with caution; read-out: tentative KD
Description: We opted for the surface plasmon resonance (SPR) method to measure these 190 (19 proteins×2 peptide versions×5 PDZ constructs) interactions. […] The amount of analyte interacting with the ligand is measured and quantified in response units (RU). […] However, these calculated K [drawing 14] were rather inaccurate especially for weak interactions. […]
Ends that are not written are not given here.
Write it as a number; the unit µM goes unstated.

Lookup: Find the measured Kd: item NRVDSKETEC [ADAM17_10] , target or system SCRIB-34/4 tandem PDZ construct (Homo sapiens).
Found: 8

---

MEASURED TARGET: SCRIB-4/4 PDZ domain (Homo sapiens)
Construct: residues 997–1093, 1097–1193 and 997–1193 of human SCRIB (Uniprot acc.: Q14160-1); made in house; host or cells: E. coli BL21 DE3
PROTOCOL DETAILS: SPR binding of MBP-PDZ analyte to immobilised biotinylated peptides
EXPERIMENTAL SETUP: SPR Biacore 2000, 25 C, steady state, 1:1 binding isotherm, MBP-PDZ 0-30 µM; to be considered with caution; read-out: tentative KD
Peptide text beside a SMILES is read from it. * marks the point of attachment. Biotin = O=C1N[C@H]2[C@H](CS[C@H]2CCCCC(=O)*)N1
QUANTITY KIND: Kd
Write down the value, and be sure its unit follows.

Some entries whose results are on file:
[
  {
    "COMPOUND": "CC(C)[C@H](NC(=O)[C@H](CCCNC(=N)N)NC(=O)[C@@H](NC(=O)[C@H](CCC(=O)O)NC(=O)[C@H](CCCCN)NC(=O)CNC(=O)[C@H](C)NC(=O)CNC(=O)[C@H](CO)NC(=O)CNC(=O)CCCC[C@@H]1SC[C@@H]2NC(=O)N[C@@H]21)[C@@H](C)O)C(=O)O [CYSLTR2_05] (Biotin-GSGAGKETRV-OH)",
    "Kd": "123 µM"
  },
  {
    "COMPOUND": "CC(C)[C@H](NC(=O)[C@@H](NC(=O)[C@@H](NC(=O)[C@H](CCC(=O)O)NC(=O)[C@@H](NC(=O)CNC(=O)[C@H](C)NC(=O)CNC(=O)[C@H](CO)NC(=O)CNC(=O)CCCC[C@@H]1SC[C@@H]2NC(=O)N[C@@H]21)C(C)C)[C@@H](C)O)C(C)C)C(=O)O [MAS_05] (Biotin-GSGAGVETVV-OH)",
    "Kd": "433 µM"
  }
]

Here's the next entry for you.
Lookup: Which Kd is reported for this compound? CC(C)C[C@H](NC(=O)[C@@H](NC(=O)[C@H](CCC(=O)O)NC(=O)[C@@H]1CCCN1C(=O)CNC(=O)[C@H](C)NC(=O)CNC(=O)[C@H](CO)NC(=O)CNC(=O)CCCC[C@@H]1SC[C@@H]2NC(=O)N[C@@H]21)[C@@H](C)O)C(=O)N[C@H](C(=O)O)C(C)C [ARHGAP6_05] (Biotin-GSGAGPETLV-OH)
Found: 104 µM

---

MEASURED TARGET: SCRIB-4/4 PDZ domain (Homo sapiens, UniProt Q14160)
Construct: residues 997–1093, 1097–1193 and 997–1193 of human SCRIB (Uniprot acc.: Q14160-1); made in house; host or cells: E. coli BL21 DE3
Sequence (Q14160 1097-1193 isoform Q14160-1): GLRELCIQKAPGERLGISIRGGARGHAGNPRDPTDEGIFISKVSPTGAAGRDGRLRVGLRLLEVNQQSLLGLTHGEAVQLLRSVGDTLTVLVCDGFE
PROTOCOL DETAILS: SPR binding of MBP-PDZ analyte to immobilised biotinylated peptides
EXPERIMENTAL SETUP: SPR Biacore 2000, 25 C, steady state, 1:1 binding isotherm, MBP-PDZ 0-30 µM; to be considered with caution; read-out: tentative KD
Peptide text beside a SMILES is read from it. * marks the point of attachment. Biotin = O=C1N[C@H]2[C@H](CS[C@H]2CCCCC(=O)*)N1
QUANTITY KIND: Kd (µM)
Write it as a number; the unit µM goes unstated.

Lookup: Which Kd is reported for this molecule? CC[C@H](C)[C@H](NC(=O)CNC(=O)[C@H](C)NC(=O)CNC(=O)[C@H](CO)NC(=O)CNC(=O)CCCC[C@@H]1SC[C@@H]2NC(=O)N[C@@H]21)C(=O)N[C@@H](C)C(=O)N[C@H](C(=O)N[C@@H](CCC(=O)O)C(=O)N[C@H](C(=O)O)C(C)C)[C@@H](C)O [DLL1_05] (Biotin-GSGAGIATEV-OH)
Found: 893
